# System: C. trachomatis serovar D strain
# method-description: Comparison of MIC, MCC, MCC3 and MCC3/MIC ratio in McCoy cells
# Format: cell-based
# run-parameters: Chlamydia trachomatis; McCoy cells; read-out: MIC
measurement-type: MIC (µg/mL)
Your answer is read as µg/mL, so omit the unit and give the number.

{"compound": "CC1COc2c(N3CCN(C)CC3)c(F)cc3c(=O)c(C(=O)O)cn1c23 (centres unmarked)", "MIC, µg/mL": 1}
{"compound": "CC[C@H]1OC(=O)[C@H](C)[C@@H](O[C@H]2C[C@@](C)(OC)[C@@H](O)[C@H](C)O2)[C@H](C)[C@@H](O[C@@H]2O[C@H](C)C[C@H](N(C)C)[C@H]2O)[C@](C)(O)C[C@@H](C)C(=O)[C@H](C)[C@@H](O)[C@]1(C)O", "MIC, µg/mL": 0.5}
{"compound": "CO[C@H]1/C=C/O[C@@]2(C)Oc3c(C)c(O)c4c(O)c(c(/C=N/N5CCN(C)CC5)c(O)c4c3C2=O)NC(=O)/C(C)=C\\C=C\\[C@H](C)[C@H](O)[C@@H](C)[C@@H](O)[C@@H](C)[C@H](OC(C)=O)[C@@H]1C", "MIC, µg/mL": 0.016}
{"compound": "C[C@H]1c2cccc(O)c2C(=O)C2=C(O)[C@]3(O)C(=O)C(C(N)=O)=C(O)[C@@H](N(C)C)[C@@H]3[C@@H](O)[C@@H]21", "MIC, µg/mL": 0.064}

--- query ---
Ask: Which MIC is listed for `CO[C@H]1/C=C/O[C@@]2(C)Oc3c(C)c(O)c4c(=O)c(c5oc6cc(N7CCN(CC(C)C)CC7)cc(O)c6nc-5c4c3C2=O)NC(=O)/C(C)=C\C=C\[C@H](C)[C@H](O)[C@@H](C)[C@@H](O)[C@@H](C)[C@H](OC(C)=O)[C@@H]1C` ?
Reply: 0.00025

----------
# Test system: C. trachomatis serovar D strain
# method-description: Comparison of MIC, MCC, MCC3 and MCC3/MIC ratio in McCoy cells
# Format: cell-based
# run-parameters: McCoy cells
measurement-type: MCC (µg/mL)
Your answer is read as µg/mL, so omit the unit and give the number.

Ask: Which MCC is listed for C[C@H]1c2cccc(O)c2C(=O)C2=C(O)[C@]3(O)C(=O)C(C(N)=O)=C(O)[C@@H](N(C)C)[C@@H]3[C@@H](O)[C@@H]21 [Doxycycline, doxycycline] ?
Reply: 8

Ask: Follow-up entry: CC1COc2c(N3CCN(C)CC3)c(F)cc3c(=O)c(C(=O)O)cn1c23 (stereo not drawn) [Ofloxacin, ofloxacin]
Reply: 16

Ask: Follow-up entry: CO[C@H]1/C=C/O[C@@]2(C)Oc3c(C)c(O)c4c(O)c(c(/C=N/N5CCN(C)CC5)c(O)c4c3C2=O)NC(=O)/C(C)=C\C=C\[C@H](C)[C@H](O)[C@@H](C)[C@@H](O)[C@@H](C)[C@H](OC(C)=O)[C@@H]1C [Rifampin, rifampin]
Reply: 0.5

Ask: Follow-up entry: CO[C@H]1/C=C/O[C@@]2(C)Oc3c(C)c(O)c4c(=O)c(c5oc6cc(N7CCN(CC(C)C)CC7)cc(O)c6nc-5c4c3C2=O)NC(=O)/C(C)=C\C=C\[C@H](C)[C@H](O)[C@@H](C)[C@@H](O)[C@@H](C)[C@H](OC(C)=O)[C@@H]1C [Rifalazil, rifalazil]
Reply: 0.002

Ask: Follow-up entry: CC[C@H]1OC(=O)[C@H](C)[C@@H](O[C@H]2C[C@@](C)(OC)[C@@H](O)[C@H](C)O2)[C@H](C)[C@@H](O[C@@H]2O[C@H](C)C[C@H](N(C)C)[C@H]2O)[C@](C)(O)C[C@@H](C)CN(C)[C@H](C)[C@@H](O)[C@]1(C)O [Azithromycin, azithromycin]
Reply: 8

Ask: Follow-up entry: CC[C@H]1OC(=O)[C@H](C)[C@@H](O[C@H]2C[C@@](C)(OC)[C@@H](O)[C@H](C)O2)[C@H](C)[C@@H](O[C@@H]2O[C@H](C)C[C@H](N(C)C)[C@H]2O)[C@](C)(O)C[C@@H](C)C(=O)[C@H](C)[C@@H](O)[C@]1(C)O [Erythromycin, erythromycin]
Reply: 8

// provenance: patent US20040029254A1
